Each recorded value in this set is attributed to paper PMC9520563.

Kindly state IC50 for each of the entries shown.
System: HepG2
Test: cells
Conditions: Homo sapiens, HepG2, 72 h, read-out: IC50 HepG2

# molecule, IC50
data = [
    ("CC(=O)O[C@H]1C(=O)[C@@]2(C)[C@H]([C@H](OC(=O)c3ccccc3)[C@]3(O)C[C@H](OC(=O)[C@H](O)[C@@H](NC(=O)c4ccccc4)c4ccccc4)C(C)=C1C3(C)C)[C@]1(OC(C)=O)CO[C@@H]1C[C@@H]2O [paclitaxel, reference compound]", "12 µM"),
    ("Cc1nn(-c2cccc([N+](=O)[O-])c2)c(Cl)c1/C=C/C(=O)/C=C/c1ccc2c(c1)OCO2 [Compound 8f]", "> 25 µM"),
    ("COc1ccc(/C=C/C(=O)/C=C/c2cn(-c3ccccc3)nc2-c2ccccc2)cc1OC [Compound 10a]", "> 25 µM"),
    ("COc1cc(/C=C/C(=O)/C=C/c2cn(-c3ccccc3)nc2-c2ccccc2)ccc1O [Compound 10c]", "10.6 µM"),
    ("COc1ccc(/C=C/C(=O)/C=C/c2c(C)nn(-c3ccccc3)c2Cl)c(OC)c1 [Compound 7b]", "> 25 µM"),
]

Kindly consider the entry below.
Identify measured IC50 corresponding to Cc1nn(-c2ccccc2)c(Cl)c1/C=C/C(=O)/C=C/c1ccc2c(c1)OCO2 [Compound 7f]
> 25 µM

###

System: MDA-MB-231
Details: IC50 on LLC-PK1 divided by IC50 on MDA-MB-231
assay metric: SI MDA-MB-231
Answers are plain numbers.

# molecule, SI MDA-MB-231
rows = [
    ("COc1cc(/C=C/C(=O)/C=C/c2c(C)nn(-c3cccc([N+](=O)[O-])c3)c2Cl)cc(OC)c1O", 6.01),
]

Hi! Can you tell me SI MDA-MB-231 for each of these molecules?
1. COc1cc(/C=C/C(=O)/C=C/c2c(C)nn(-c3ccccc3)c2Cl)ccc1O
2. COc1cc(/C=C/C(=O)CC(=O)/C=C/c2ccc(O)c(OC)c2)ccc1O [curcumin, reference compound]

1: 1.24; 2: 1.72

Batch request: SI MDA-MB-231 per item, same order as input.
1. COc1ccc(/C=C/C(=O)/C=C/c2c(C)nn(-c3cccc([N+](=O)[O-])c3)c2Cl)cc1OC
2. COc1cc(/C=C/C(=O)/C=C/c2c(C)nn(-c3cccc([N+](=O)[O-])c3)c2Cl)cc(OC)c1OC
3. COc1ccc(/C=C/C(=O)/C=C/c2cn(-c3ccccc3)nc2-c2ccccc2)cc1O [Compound 10d]
4. COc1cc(/C=C/C(=O)/C=C/c2cn(-c3ccccc3)nc2-c2ccccc2)cc(OC)c1O [Compound 10h]

1: 3.05; 2: 2.44; 3: 2.55; 4: 2.51

###

Test system: HepG2
Details: IC50 on LLC-PK1 divided by IC50 on HepG2
So I've got a bunch of compounds here, and I need their SI HepG2 values.
Numbers only.

# compound, assayed system, SI HepG2
rows = [
    ("COc1cc(/C=C/C(=O)/C=C/c2c(C)nn(-c3cccc([N+](=O)[O-])c3)c2Cl)cc(OC)c1OC", "HepG2", 0.40),
    ("COc1cc(/C=C/C(=O)/C=C/c2c(C)nn(-c3cccc([N+](=O)[O-])c3)c2Cl)cc(OC)c1O", "HepG2", 2.30),
    ("COc1cc(/C=C/C(=O)CC(=O)/C=C/c2ccc(O)c(OC)c2)ccc1O [curcumin, reference compound]", "HepG2", 1.51),
    ("COc1ccc(/C=C/C(=O)/C=C/c2c(C)nn(-c3cccc([N+](=O)[O-])c3)c2Cl)cc1OC", "HepG2", 2.93),
    ("COc1ccc(/C=C/C(=O)/C=C/c2c(C)nn(-c3ccccc3)c2Cl)cc1O", "HepG2", 1.14),
]

Each compound below has a reported value. Please supply its SI HepG2.
1. COc1ccc(/C=C/C(=O)/C=C/c2cn(-c3ccccc3)nc2-c2ccccc2)cc1O [Compound 10d]
2. COc1cc(/C=C/C(=O)/C=C/c2cn(-c3ccccc3)nc2-c2ccccc2)cc(OC)c1O [Compound 10h]

1: 1.25; 2: 2.05
